Reference source for all entries: ChEMBL document CHEMBL1130589

Target: Phosphodiesterase 4 (Homo sapiens, UniProt P27815+Q08499+Q07343+Q08493)
Experiment: Relative inhibition of phosphodiesterase 4 activity and Rolipram binding to PDE4
Type: protein assay

- COMPOUND: "CCn1cc(C(=O)NCCc2ccncc2)c(=O)c2cc(C(F)(F)F)ccc21"
  Ratio: "< 0.15"
- COMPOUND: "CCn1cc(C(=O)NCCc2ccccc2)c(=O)c2cc(C(F)(F)F)ccc21"
  Ratio: "< 0.6"
- COMPOUND: "CCn1cc(C(=O)NC2CCc3cc(NC(C)=O)ccc32)c(=O)c2cnc(N3CCCC3)nc21 (stereo not given)"
  Ratio: "< 1"
- COMPOUND: "CCn1cc(C(=O)NC2CCc3cc(OC)c(OC)cc32)c(=O)c2cc(C(F)(F)F)ccc21 (stereo not given)"
  Ratio: "< 0.9"
- COMPOUND: "CCn1cc(C(=O)NCCc2ccncc2)c(=O)c2cc3c(cc21)OCO3"
  Ratio: 1
- COMPOUND: "CC1CCc2cc(F)cc3c(=O)c(C(=O)NCCc4ccncc4)cn1c23 (stereo not given)"
  Ratio: "< 0.7"
- COMPOUND: "CCn1cc(C(=O)NCCc2ccncc2)c(=O)c2cnc(N3CCCC3)nc21"
  Ratio: "< 1"
- COMPOUND: "CCCn1cc(C(=O)NCCc2ccncc2)c(=O)c2cc(C(F)(F)F)ccc21.Cl"
  Ratio: 0.17
- COMPOUND: "CCn1cc(C(=O)N(C)CCc2ccccc2)c(=O)c2cc(C(F)(F)F)ccc21"
  Ratio: "< 0.49"
- COMPOUND: "CCn1cc(C(=O)NCCc2ccncc2)c(=S)c2cc(C(F)(F)F)ccc21"
  Ratio: "< 0.46"
